Cited source for all entries: ChEMBL document CHEMBL3588778

target: C-C chemokine receptor type 2 (Mus musculus, UniProt P51683); experiment: Antagonist activity against mouse CCR2B expressed in human U2OS cells co-expressing beta-arrestin assessed as inhibition of mouse CCL2-induced beta-arrestin recruitment pre-incubated for 10 mins before mouse CCL2 stimulation for 90 mins by luminescence based assay
Sequence (P51683 whole entry): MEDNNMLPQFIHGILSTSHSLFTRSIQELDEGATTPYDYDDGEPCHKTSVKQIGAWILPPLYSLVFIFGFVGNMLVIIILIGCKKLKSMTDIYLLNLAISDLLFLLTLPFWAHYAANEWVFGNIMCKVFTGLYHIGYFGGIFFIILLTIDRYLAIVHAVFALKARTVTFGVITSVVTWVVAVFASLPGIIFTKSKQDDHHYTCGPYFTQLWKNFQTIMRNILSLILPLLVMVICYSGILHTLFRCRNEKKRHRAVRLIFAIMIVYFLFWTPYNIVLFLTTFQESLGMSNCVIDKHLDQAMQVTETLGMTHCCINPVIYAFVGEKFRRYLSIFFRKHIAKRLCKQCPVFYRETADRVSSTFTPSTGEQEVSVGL
MEASURE NAME: IC50

1) O=C(NCc1cc(F)cc(C(F)(F)F)c1)C(CCN1CCC2(CC1)OCCc1cc(O)ccc12)c1ccc(F)cc1 (configuration not stated) | > 30 µM
2) COc1ccc2c(c1)CCOC21CCN(CCC(C(=O)NCc2cc(C(F)(F)F)cc(C(F)(F)F)c2)c2ccc(F)cc2)CC1 (configuration not stated) | 4.16 µM
3) CC1Cc2ccccc2C2(CCN(CCC(C(=O)NCc3cc(C(F)(F)F)cc(C(F)(F)F)c3)c3ccc(F)cc3)CC2)O1 (configuration not stated) | 3.67 µM
4) COc1ccc2c(c1)CCOC21CCN(CCC(C(=O)NCc2cc(F)cc(C(F)(F)F)c2)c2ccc(F)cc2)CC1 (configuration not stated) | 4.63 µM
5) COc1ccc2c(c1)CCOC21CCN(CCCC(=O)NCc2cc(F)cc(C(F)(F)F)c2)CC1 | > 30 µM
6) O=C(CCCN1CCC2(CC1)OCCc1ccccc12)NCc1cc(F)cc(C(F)(F)F)c1 | > 30 µM
7) O=C(CCCN1CCC2(CC1)OCCc1ccccc12)NCc1cc(C(F)(F)F)cc(C(F)(F)F)c1 | 24 µM
